Recorded logP for the following compounds
- test_name: Partition coefficient (logP)
- Type: physicochemical
- experimental_context: octanol/water
assay_metric: logP

1. COc1cc2c(c(OC)c1OC)-c1ccc(=O)c(O)cc1C(NC(=O)C(F)(F)F)CC2 (stereo not drawn) = 1.82
2. COc1cc2c(c(OC)c1O)-c1ccc(OC)c(=O)cc1C(NC(=O)C(F)(F)F)CC2 (stereo not drawn) = 1.67
3. COc1cc2c(c(OC)c1OC)-c1ccc(=O)c(OC)cc1C(NC(=O)C(F)(F)F)CC2 (stereo not drawn) = 2.08

---

- Tested on: J774
- test_name: Cytotoxic activity against mouse macrophage cell line J7.VBL-1
- Format: functional
- experimental_context: read-out: ED50 (the source's name)
pEC50: −log10 of the molar value.
Recorded pEC50 for the following compounds
assay_metric: pEC50

1. COc1cc2c(c(OC)c1OC)-c1ccc(=N)c(O)cc1C(NC(C)=O)CC2 (stereo not given) = 4.82
2. COc1cc2c(c(OC)c1OC)-c1cc/c(=N/CC(F)(F)F)c(O)cc1C(NC(=O)C(F)(F)F)CC2 (stereo not given) = 5.54
3. COc1cc2c(c(OC)c1OC)-c1ccc(=O)c(O)cc1C(NC(=O)C(F)(F)F)CC2 (stereo not given) = 4.70
4. COc1cc2c(c(OC)c1OC)-c1ccc(OC)c(=O)cc1[C@@H](NC(C)=O)CC2 = 4.77
